Where do the numbers come from? From PubChem BioAssay AID1851.

target: Cytochrome P450 2D6 (Homo sapiens) (UniProt P10635); experiment: Cytochrome panel assay with activity outcomes; settings: recombinant CYP, pro-luciferin dealkylation, luminescence, p450-cyp2d6; series mostly up to 57.1 µM
Sequence (P10635 whole entry, looked up): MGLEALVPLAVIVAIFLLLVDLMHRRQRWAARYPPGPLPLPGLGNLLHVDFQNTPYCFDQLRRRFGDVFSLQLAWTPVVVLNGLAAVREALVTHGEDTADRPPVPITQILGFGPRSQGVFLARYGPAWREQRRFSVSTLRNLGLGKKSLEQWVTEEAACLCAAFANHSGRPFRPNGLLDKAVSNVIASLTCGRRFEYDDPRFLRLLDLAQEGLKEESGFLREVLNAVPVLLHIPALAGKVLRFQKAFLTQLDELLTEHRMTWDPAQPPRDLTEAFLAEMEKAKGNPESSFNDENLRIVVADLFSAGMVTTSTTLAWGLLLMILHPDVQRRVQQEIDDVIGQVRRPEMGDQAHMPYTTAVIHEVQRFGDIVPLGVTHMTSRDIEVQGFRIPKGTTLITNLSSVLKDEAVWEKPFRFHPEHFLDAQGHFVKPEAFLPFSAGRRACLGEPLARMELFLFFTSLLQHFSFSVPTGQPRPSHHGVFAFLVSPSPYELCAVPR
Out of some 16,000 compounds screened, about 2,600 (16%) were called active. About 20% were inconclusive and are not listed. The call rests on the fitted dose curve; in most records, active means well fitted curve in the direction sought with a large enough effect; inconclusive means small, poorly fitted or top-dose-only effect, or effect the other way; inactive means no such curve, though single readings can be large or run the other way. This is one part of a sample in which actives are shown more often than they occur.
Pick one and only one: True = active, False = inactive

Enquiry: Name the outcome recorded for O=C(Nc1ccccc1)N1CC[C@@]2(CCCN(C(=O)Oc3ccccc3)C2)C1 in the assay.
Return: False

Enquiry: Name the outcome recorded for COc1ccc(NC(=O)N2CCCC3(CCN(C(=O)Oc4ccccc4)CC3)C2)cc1 in the assay.
Return: False

Enquiry: Name the outcome recorded for N#Cc1ccc(CN2CCC3(CC2)CCN(C(=O)Oc2ccccc2)CC3)cc1 in the assay.
Return: False

Enquiry: Name the outcome recorded for CN1CC[C@@]2(CCCN(C(=O)Oc3ccccc3)C2)C1 in the assay.
Return: False

Enquiry: Name the outcome recorded for CC(C)CN1CC[C@@]2(CCCN(C(=O)Oc3ccccc3)C2)C1 in the assay.
Return: True

Enquiry: Name the outcome recorded for CC(C)CN1CC2(CCN(C(=O)Oc3ccccc3)CC2)C1 in the assay.
Return: False

---

target: Cytochrome P450 2D6 (Homo sapiens) (UniProt P10635); assay: Cytochrome panel assay with activity outcomes; conditions: recombinant CYP, pro-luciferin dealkylation, luminescence, p450-cyp2d6; series mostly up to 57.1 µM
The whole screen tested about 16,000 compounds, of which about 2,600 (16%) were called active. Another 20% or so got no clear call; they are omitted. The call rests on the fitted dose curve; in most records, active means well fitted curve in the direction sought with a large enough effect; inconclusive means small, poorly fitted or top-dose-only effect, or effect the other way; inactive means no such curve, though single readings can be large or run the other way. The sample as a whole holds a higher share of actives than the screen did.
Pick one and only one: active, inactive

Enquiry: Name the outcome recorded for Cc1ccc2c(c1)N(CCC(=O)N1CCC3(CC1)OCCO3)C(=O)C(C)O2 (stereo not given) in the assay.
Return: inactive

Enquiry: Name the outcome recorded for COC(=O)C(O)(c1c(C)[nH]c2ccccc12)C(F)(F)F (stereo not given) in the assay.
Return: inactive

Enquiry: Name the outcome recorded for CC[C@@]1(O)C(=O)OCc2c1cc1n(c2=O)Cc2cc3ccccc3nc2-1 in the assay.
Return: inactive

Enquiry: Name the outcome recorded for Fc1ccc(C(OCCN2CCN(C/C=C\c3ccccc3)CC2)c2ccc(F)cc2)cc1 in the assay.
Return: active

Enquiry: Name the outcome recorded for CC(C)(c1ccc(OC[C@@H]2CO2)cc1)c1ccc(OC[C@H]2CO2)cc1 in the assay.
Return: inactive

Enquiry: Name the outcome recorded for CC(N)Cc1ccccc1Sc1ccc(O)cc1 (stereo not given) in the assay.
Return: active

Enquiry: Name the outcome recorded for N#CC(=C(/N)Sc1ccccc1N)/C(C#N)=C(/N)Sc1ccccc1N in the assay.
Return: active

Enquiry: Name the outcome recorded for C[C@@H]1O[C@H](O[C@H]2C[C@@H](O)[C@@]3(CO)[C@H]4[C@@H](O)C[C@]5(C)[C@@H](C6=CC(=O)OC6)CC[C@]5(O)[C@H]4CC[C@]3(O)C2)[C@@H](O)[C@H](O)[C@@H]1O in the assay.
Return: inactive

Enquiry: Name the outcome recorded for CCS(=O)(=O)Nc1cccc(C(=C2CCCCC2)c2cnc[nH]2)c1 in the assay.
Return: active

Enquiry: Name the outcome recorded for CN(C)[C@@H]1C(=O)C(C(N)=O)=C(O)[C@]2(O)C(=O)C3=C(O)c4c(O)cccc4[C@@](C)(O)[C@H]3[C@H](O)[C@@H]12 in the assay.
Return: inactive

Enquiry: Name the outcome recorded for O=C(Nc1ccccc1)N1CCC2(CC1)CCN(C(=O)Oc1ccccc1)CC2 in the assay.
Return: inactive

Enquiry: Name the outcome recorded for CNC(C)Cc1ccccc1Sc1ccc(O)cc1 (stereo not given) in the assay.
Return: active

Enquiry: Name the outcome recorded for CC[C@@H]1[C@@H]2C[C@H]3[C@H]4N(C)c5ccccc5[C@@]45C[C@@H]([C@@H]2[C@@H]5O)N3[C@H]1O in the assay.
Return: active

Enquiry: Name the outcome recorded for COc1ccccc1CC1C(=O)C2CCN1CC2 (stereo not given) in the assay.
Return: active

Enquiry: Name the outcome recorded for C[C@H]1CC[C@@]2(NC1)O[C@@H]1C[C@H]3[C@@H]4CC=C5C[C@@H](O)CC[C@]5(C)[C@@H]4CC[C@]3(C)[C@@H]1[C@@H]2C in the assay.
Return: inactive

Enquiry: Name the outcome recorded for COC[C@H]1OC(=O)c2coc3c2[C@@]1(C)C1=C(C3=O)[C@H]2CCC(=O)[C@@]2(C)C[C@H]1OC(C)=O in the assay.
Return: inactive

Enquiry: Name the outcome recorded for Cc1ccc(CCN2CC(C(=O)N3CCC4(CC3)OCCO4)CC2=O)cc1 (stereo not given) in the assay.
Return: inactive

Enquiry: Name the outcome recorded for O=C(Nc1ccc(C(F)(F)F)cc1)c1cccn(Cc2ccc3c(c2)OC(F)(F)O3)c1=O in the assay.
Return: inactive

Enquiry: Name the outcome recorded for Clc1ccc([C@@H](OCCN2CCCCC2)c2ccccc2)cc1 in the assay.
Return: active

Enquiry: Name the outcome recorded for CCOC(=O)C1Cc2c([nH]c3ccccc23)CN1 (stereo not given) in the assay.
Return: active
